Test: yeast display, Sf9 membrane polyspecificity reagent, FACS + sequencing; frameworks hold sequencing errors

Residue Codes	polyreactivity (PSR sort gate)
QVQLVESCGGLVQAGGSLRLSCAASGRNFYFNAMGWYRKAPGKERELVARISTGGITNYADSVKGRFTISRDNAKITVYLQMNSLKPEDTAVYYCAADYRRTWRYNYCGQGTQVTVSS	high polyreactivity
QVQLVESGGGLVQAGGSLRLSCAASGSTFSVNAMGWYRQAPGKERELVAAISSTGSTKYADSVKGRFTISRDNAKNTVYLQIISLKPEDTAVYCAASNADYEYYPFSDWYFSPYDYWGQGTQVTVSS	low polyreactivity
QVQLVESGGGLVQAGGSLRLSCAASGSIFIANAMGWYRQAPGKERELVATISWSGGRTYYADSVKGRFTISRDNAKNTVYLQMNSLKPEDTAVYYCAAVYGAYDSGYKYNYWGQGTQVTVSS	high polyreactivity
QVQLVESGGGLVQAGGSLRLSCAASGSTFYKNAMGWYIQAPGKERELVAAISGSGGRTYYADSVKGRFTISRDTAKNTVYLQMNSLKPEDTAVYYCNAARAYYSLYYGLDYWGQGTQVTVSS	high polyreactivity
QVQLVESGGGLVQAGGSLRLSCAASGSIFYLYAMGWYRQAPGKERELVAAISWSTSGTYYADSVKGRFTISRDNAKNTVYLQMNSLKPEDTAVYYCAADVYSPWWYDYWGQGTQVTVSS	high polyreactivity
QVQLVESGGGLVQAGGSLRLSCAASGFIFRWYAMGWSRQAPGKERELVAAISRGGSTNYADSVKGRFTISRDNAKNTVYLQMISLKPEDTAVYYCNARYVSYSGRYVIGQYVKYDYWGQGTQVTVSS	high polyreactivity
QVQLVESGGGLVQAGGSLRLSCAASGSTFYTYTMGWYRQAPGKERELVAAITWSGGSTYYADSVKGRFTISRDNANNTVYLQMNSLKPEDTAVYYCNADQDYKGARPSGMDYCGQGTQVTVSS	low polyreactivity
QVQLVDSGGGLVQAGGSLRLSCAASGFSLSINAMGWYRQAPGKERELVDGISWSGGSTYYADSVKGRFTISRDNAKTTFYLQMNSLKTEDTAVYYCNADLFLFVYFGQYYWRTYNYWGQGTQVTVSS	low polyreactivity
QVQRVESGGGLVQAGGSRRLTCAASGRTSVPYARGWYRQAPGKERELVAAITSGGSTYYADSVKGRFTISRDNAKNTVYLQMNSLKPEDTAVYYCAASLPHSAPYTASYGSWGQGTQVTVSS	low polyreactivity
QVQLVESGGGLVQAGGSLRISCAASGRTFGPYAMGWYRQAPGKERELGAAITSSGGSTYYADSVKGRFTISRDNAKNTVYLQMNSLKPEDTAVFYCNKLYWRQSLDYDYWGQGTQVTVSS	low polyreactivity
QVQLVESGGGLVQAGGSLRLSCAASGRIFGTDVMGWYRQAPGKERELVARITGGGSTNYADSVKGRFTISRDNAKNTVYFQMNSLKPEDTAVYYCARDYGPYLSPENPAPMDYWGQGTQVTVSS	low polyreactivity
QVQLVESGGGLVQAGGSLRLSCAASGYTFTSNAMGWYRQAPGKERELVAAISRSGVSTSYADSVKGRFTISRDNAKNTVYLQMNSLKPEDSAVYYCNRYYWDPTHPRYDSWGQGTQVTVSS	high polyreactivity
QVQLVESGGGLVQAGGSLRLSCAASGRTFQYYAMGWYRQAPGKERELVATISYSGGSTSYADSVKGRFTISRDNAKNTVYLQMNSLKPEDTAVYYCAADYYYGDALSPSYPHWDFYYWGQGTQVTVSS	low polyreactivity
QVQLVESGGGLVQAGGSLRLSCAASGFTFALYAMGWYRQAPGKEREFVAAITRSGGITYYADSVKGRFTFSRDNAKNTVYLQINSLKPEDTAVYYCAAVPRWSVYRAYGYWGQGTQVTVSS	high polyreactivity
QVQLVESGGGLVQAGGSLRLSCAASGLTFRANAMGWYRQAPGKERELVAAISWRGGGTYYADSVKGRFTISRDNAKNTVYLQMNSLKPEDTAVYYCDAKTQNAYYWGQGTQVTVSS	low polyreactivity
